system_name: T1, human LIV-1 (human, UniProt Q13433 29-755)
T1 construct: whole, on cells; also called H-LIV1
T1 sequence (looked up): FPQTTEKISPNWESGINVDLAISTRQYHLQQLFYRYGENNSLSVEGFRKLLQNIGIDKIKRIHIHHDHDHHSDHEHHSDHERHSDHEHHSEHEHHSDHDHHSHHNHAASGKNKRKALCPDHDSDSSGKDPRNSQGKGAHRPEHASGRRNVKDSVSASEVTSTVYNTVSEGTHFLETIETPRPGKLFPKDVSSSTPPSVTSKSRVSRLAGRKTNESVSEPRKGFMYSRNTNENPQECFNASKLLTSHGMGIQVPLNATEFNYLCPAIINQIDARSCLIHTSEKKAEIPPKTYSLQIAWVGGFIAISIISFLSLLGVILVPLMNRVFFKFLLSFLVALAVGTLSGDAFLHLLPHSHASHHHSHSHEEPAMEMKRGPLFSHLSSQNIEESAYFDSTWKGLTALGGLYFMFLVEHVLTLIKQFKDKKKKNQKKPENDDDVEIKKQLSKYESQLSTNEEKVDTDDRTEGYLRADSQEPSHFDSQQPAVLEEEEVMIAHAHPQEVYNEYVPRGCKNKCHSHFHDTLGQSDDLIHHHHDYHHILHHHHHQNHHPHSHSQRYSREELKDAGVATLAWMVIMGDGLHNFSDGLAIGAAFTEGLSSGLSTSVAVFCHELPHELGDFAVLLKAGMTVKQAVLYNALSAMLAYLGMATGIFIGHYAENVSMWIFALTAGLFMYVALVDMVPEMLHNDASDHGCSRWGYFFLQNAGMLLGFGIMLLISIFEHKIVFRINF
run_description: FACS, BT20/H_LIV-1 High cells
attribute_measured: Top (MFI)
Report as a plain number; the unit MFI is understood.

Lookup: Would you mind telling me what Top (MFI) value was observed for 124H4D11.p2.z4 (antibody, V domains shown) VH: QVQLVQSGAEVVKPGASVKVSCKASGFNIKDYYMHWVRQAPGQGLEWIGWIDPENDDTEYDPKFQGRVTMTADTSTSTVYMELSSLRSEDTAVYYCAARYYAFDYWGQGTMVTVSS VL: DVLMTQSPLSLPVTLGQPASISCRSSQSIVHSNANTYLEWYLQRPGQSPRLLIYKVSNRFSGVPDRFSGSGSGTDFTLKISRVEAEDVGVYYCFQGSQVPPTFGQGTKLEIK ?
Found: 20800

Lookup: Item 290F10G10.z2-Eribulin (antibody, V domains shown, Eribulin drug moiety conjugated; site and chain not stated) VH: EVQLVQSGAEVKKPGASVKVSCKASGYTFTSYWIHWVRQAPGQGLEWMGTIYPGDADTRSTQKFKDRVTMTADTSTSTVYMELSSLRSEDTAVYYCARSLIHDDYDKYYFDYWGQGTTVTVSS VL: DIQMTQSPSSLSASVGDRVTITCKARQDINKYIAWYQQKPGKAPKLLIHYTSILQPGIPSRFSGSGSGRDYTFTISSLQPEDIATYYCLQYDYFFTFGGGTKVEIK has what recorded Top (MFI)?
Found: 21000

Lookup: # input binder: 5D6B10.z7-MMAE (antibody, V domains shown, MMAE drug moiety conjugated; site and chain not stated, Antibody-drug conjugate of 5D6B10.z7; human gamma 1/kappa) VH: QVQLVQSGGGVVQPGRSLRLSCTVSGFSLTTYGIHWVRQSPGKGLEWLGVIWTGGTTDYNAAFISRLTISKDNSKSTVYFQMNSLQAEDTAIYYCARGPSSYWGQGTLVTVSS VL: EIVMTQSPATLSVSPGERATLSCKASQNVDTNVVWYQQKPGQSPRALIYSASYRYSGVPARFSGSGSGTEFTLTISSLQSEDFAVYFCQQYNNYPWTFGQGTKVEIK ; wanted: its Top (MFI)
Found: 149000

Lookup: What value of Top (MFI) has been reported for the following binder? 124H4D11.p2.z4-Eribulin (antibody, V domains shown, Eribulin drug moiety conjugated; site and chain not stated, Antibody-drug conjugate of 124H4D11.p2.z4; human gamma 1/kappa) VH: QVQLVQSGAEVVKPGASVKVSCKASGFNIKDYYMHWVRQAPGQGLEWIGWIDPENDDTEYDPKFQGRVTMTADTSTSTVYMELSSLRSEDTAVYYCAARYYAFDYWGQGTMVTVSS VL: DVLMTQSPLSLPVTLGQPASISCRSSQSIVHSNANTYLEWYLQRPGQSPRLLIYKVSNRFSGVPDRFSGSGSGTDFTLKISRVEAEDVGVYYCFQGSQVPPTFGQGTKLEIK
Found: 19200

Lookup: Quick one: Top (MFI) for 5D6B10.Z7 (antibody, V domains shown) VH: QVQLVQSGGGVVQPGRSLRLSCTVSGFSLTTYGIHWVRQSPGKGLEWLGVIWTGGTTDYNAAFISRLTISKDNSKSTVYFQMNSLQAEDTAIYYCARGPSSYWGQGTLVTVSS VL: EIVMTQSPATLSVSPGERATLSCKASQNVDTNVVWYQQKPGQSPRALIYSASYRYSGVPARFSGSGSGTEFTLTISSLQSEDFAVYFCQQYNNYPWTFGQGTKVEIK ?
Found: 152000

Lookup: I am curious: what Top (MFI) value has been reported for 290F10G10.z2-MMAE (antibody, V domains shown, MMAE drug moiety conjugated; site and chain not stated, also called LM-001-MMAE) VH: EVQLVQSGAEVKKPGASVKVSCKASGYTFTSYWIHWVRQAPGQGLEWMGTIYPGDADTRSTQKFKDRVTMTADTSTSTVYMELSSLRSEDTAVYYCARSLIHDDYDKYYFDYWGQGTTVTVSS VL: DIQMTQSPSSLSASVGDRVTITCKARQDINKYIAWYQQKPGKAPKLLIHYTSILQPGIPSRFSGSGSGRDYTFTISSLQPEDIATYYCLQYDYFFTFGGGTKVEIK ?
Found: 20800
